Recorded values, source patent US12209135B2.

Catalogue of Kon readings, one per entry.
Tested on: cynomolgus CD45 ectodomain
Sequence (as listed by the source): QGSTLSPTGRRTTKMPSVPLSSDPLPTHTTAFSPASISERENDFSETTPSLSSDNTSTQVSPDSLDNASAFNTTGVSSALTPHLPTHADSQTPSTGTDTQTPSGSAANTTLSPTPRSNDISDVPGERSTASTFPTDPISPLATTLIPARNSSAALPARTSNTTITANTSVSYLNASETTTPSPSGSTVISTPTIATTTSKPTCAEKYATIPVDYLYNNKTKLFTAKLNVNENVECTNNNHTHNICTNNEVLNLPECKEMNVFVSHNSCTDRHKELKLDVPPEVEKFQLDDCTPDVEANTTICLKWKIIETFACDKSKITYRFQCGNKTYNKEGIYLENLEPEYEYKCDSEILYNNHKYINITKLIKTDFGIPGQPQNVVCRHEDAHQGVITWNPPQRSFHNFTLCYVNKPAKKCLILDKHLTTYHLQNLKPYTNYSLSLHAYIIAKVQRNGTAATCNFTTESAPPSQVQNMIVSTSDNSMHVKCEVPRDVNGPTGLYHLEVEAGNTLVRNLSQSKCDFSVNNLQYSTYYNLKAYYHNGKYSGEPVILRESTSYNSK
Assay: Biolayer interferometry (BLI, Octet) binding of immobilized IgG to purified CD45 ectodomain
Settings: Table 2, Cynomolgus CD45

Could you please provide reported Kon for Ab6: affinity matured human anti-CD45 IgG derived from Ab1; VH SEQ ID NO:51, VL SEQ ID NO:55 (antibody, V domains shown) VH: EVQLVESGGGLVQPGGSLRLSCAASGFTFEAYSMNWVRQAPGKGLEWVSYISLSGATIHYADSVKGRFTISRDNAKNSLYLQMNSLRAEDTAVYYCARGGQYYYTSSDYGEVAFDIWGQGTLVTVSS VL: DIVLTQSPLSLPVTPGEPASISCRSSQSLVSSGYNYLDWYLQKPGQSPQLLIYFGSSRASGVPDRFSGSGSGTDFTLKISRVEAEDVGVYYCMQRRRTPWSFGGGTKVEIK ? Thanks!
118000 M⁻¹ s⁻¹

Determine its reported Kon: Ab7: variant of Ab3 with asparagine to serine substitution in CDR-L1; VH SEQ ID NO:61, VL SEQ ID NO:65 (antibody, V domains shown) VH: QVQLVESGGGLVKPGGSLRLSCAASGFTFGGYSMNWVRQAPGKGLEWVSYISISGATITYADSVKGRFTISRDNAKNSLYLQMNSLRAEDTAVYYCARGGQYYYDSSDYGEVAFDIWGQGTMVTVSS VL: DIVMTQSPLSLPVTPGEPASISCRSSQSLVSSGYNYLDWYLQKPGQSPQLLIYFGSSRASGVPDRFSGSGSGTDFTLKISRVEAEDVGVYYCMQRRRTPPFTFGGGTKVEIK
127000 M⁻¹ s⁻¹
